protocol.description: Phase I clinical trial Part A: pharmacokinetics
Type: in vivo
test.parameters: male, human, plasma, po, 200 mg, 200 mg single oral dose; healthy male subjects; read-out: T1/2 (mean ± SD, hr) (converted)
endpoint: half-life (h)
Output spec: scalar in h, unitless text.

Return half-life (reported value) for this compound: C[C@H](Oc1ccc(Br)cc1-c1ccon1)C(=O)O [NMD670]
4.6

---

protocol.description: Phase I clinical trial Part A: pharmacokinetics
Type: in vivo
test.parameters: male, human, plasma, po, 800 mg, 800 mg fasted (male); single oral dose; read-out: AUC0-infinity (Mean ± SD, h · ng/mL)
endpoint: AUC(0-inf) (µg·h/mL)
Write the answer as a number in µg·h/mL, unit excluded.

Please give the documented AUC(0-inf) of C[C@H](Oc1ccc(Br)cc1-c1ccon1)C(=O)O
191

---

protocol.description: Phase I clinical trial Part A: pharmacokinetics
Type: in vivo
test.parameters: male, human, plasma, po, 800 mg, 800 mg fed (male); single oral dose; read-out: AUC0-infinity (Mean ± SD, h · ng/mL)
endpoint: AUC(0-inf)

Return AUC(0-inf) (reported value) for this compound: C[C@H](Oc1ccc(Br)cc1-c1ccon1)C(=O)O [NMD670]
180 µg·h/mL

---

protocol.description: Phase I clinical trial Part A: pharmacokinetics
Type: in vivo
test.parameters: male, human, plasma, po, 1200 mg, 1200 mg single oral dose; healthy male subjects; read-out: T1/2 (mean ± SD, hr) (converted)
endpoint: half-life (h)
Just the number please, in h, no unit attached.

Please supply the value of reported half-life for the item C[C@H](Oc1ccc(Br)cc1-c1ccon1)C(=O)O
6.11

Source of measurements: patent US20260102377A1
